- Measured on: T1, huCD33-G69-Fc recombinant protein (human, UniProt P20138 18-259)
- T1 construct: extracellular domain; also called CD33 R69G
- Method summary: BLI;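 further: biolayer interferometry: scFvs captured from periplasmic extracts on anti-V5-loaded streptavidin biosensors, antigen association for 2 min, buffer dissociation for 5 min, 1:1 Langmuir fit giving off-rate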
Reported property: binding result

[[record]]
binder = "Polypeptide No. 116 (scFv, V domains shown, scFv) VH: EVQLLESGGGLVQPGGSLRLSCAASGFTFSNYAMAWVRQAPGKGLEWVSAISGSGGGTYYADSVKGRFTISRDNSKNTLYLQMNSLRAEDTAVYYCAREGGYDPDYYYYGMDVWGQGTTVTVSS VL: DIQMTQSPSSLSASVGDRVTITCRASQSISSYLNWYQQKPGKAPKLLIYATSRLQSGVPSRFSGSGSGTDFTLTISSLQPEDFATYYCQQGFNFPPTFGGGTKVEIKR"
result = "binds"

[[record]]
binder = "Polypeptide No. 123 (scFv, V domains shown, scFv) VH: EVQLLESGGGLVQPGGSLRLSCAASGFILGNAWMHWVRQAPGKGLEWVASVSGDGSDENYADSVKGRFTISRDNSKNTLYLQMNSLRAEDTAVYYCARDTHDYGDYAPFDYWGQGTLVTVSS VL: DIQMTQSPSSLSASVGDRVTITCQASQDINNYLNWYQQKPGKAPKLLIYAASNLQSGVPSRFSGSGSGTDFTLTISSLQPEDFATYYCQQTYSFPLTFGGGTKVEIKR"
result = "binds"

[[record]]
binder = "Polypeptide No. 111 (scFv, V domains shown, scFv) VH: QVQLVQSGAEVKKPGASVKVSCKASGGTFTSYGISWVRQAPGQGLEWMGWINPNTGVTNYAQDFQGRVTMTRDTSTSTVYMELSSLRSEDTAVYYCANEQGGFDYWGQGTLVTVSS VL: EIVMTQSPATLSVSPGERATLSCRASQSVAGSYLAWYQQKPGQAPRLLIYGASTRATGIPARFSGSGSGTEFTLTISSLQSEDFAVYYCQQYYSTPLTFGGGTKVEIKR"
result = "binds"

